Biological target: CRABPI (Homo sapiens, UniProt P29762, L29C)
Construct: His-tagged, tag cleaved with thrombin
Sequence (P29762 whole entry L29C): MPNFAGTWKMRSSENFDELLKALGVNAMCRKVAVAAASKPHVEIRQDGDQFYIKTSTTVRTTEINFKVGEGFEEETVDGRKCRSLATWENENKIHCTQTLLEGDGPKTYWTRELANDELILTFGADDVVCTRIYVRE
Assay: co-crystal structure ([…] Å) and competitive fluorescence displacement of DC271
parameter_measured: Kd (µM)
Lab book: enter the figure in µM, no units written.

Problem: What value of Kd has been recorded for this entry: CC1(C)CCC(C)(C)c2nc(C#Cc3ccc(C(=O)O)cc3)cnc21 [DC645]
Solution: 1.94
